- Test system: HIV-1 subtype A strain 12RU 69831
- procedure_summary: Inhibition of HIV-1 reproduction / protection of infected MT-4 cells (living cell concentration, p24 production)
- Assay type: cell-based
- experimental_setup: Human immunodeficiency virus 1, MT4, MT-4 cells infected with HIV-1 at a constant virus dose of 300 CCID50; read-out: Activity against HIV-1 12RU 69831 strain (subtype A)
test_readout: pIC50
As a rule, pIC50 stands for the negative log10 of the concentration, concentration in M.

// below: answered compounds
| compound | pIC50 |
| --- | --- |
| Cc1cc(C#N)cc(C)c1Oc1nc(Nc2ccc(C#N)cc2)nc2c1CN(C(=O)[C@@H](N)CC(C)C)CC2 | 5.98 |
| COCC(C)N1CCc2nc(Nc3ccc(C#N)cc3)nc(Oc3c(C)cc(C#N)cc3C)c2CC1 (stereo not drawn) | 6.38 |
| Cc1cc(C#N)cc(C)c1Oc1nc(Nc2ccc(C#N)cc2)nc2c1CCN(C(=O)[C@H]1CCCN1C(=O)OC(C)(C)C)CC2 | 3.31 |

Find the recorded pIC50 belonging to Cc1cc(C#N)cc(C)c1Oc1nc(Nc2ccc(C#N)cc2)nc2c1CCN(C1CCNCC1)CC2 and report it.
4.79

Find the recorded pIC50 belonging to Cc1cc(C#N)cc(C)c1Oc1nc(Nc2ccc(C#N)cc2)nc2c1CCN(C(=O)C1CCN(C(=O)OC(C)(C)C)CC1)CC2 and report it.
2.49

Find the recorded pIC50 belonging to CSCCC(NC(=O)OC(C)(C)C)C(=O)N1CCc2nc(Nc3ccc(C#N)cc3)nc(Oc3c(C)cc(C#N)cc3C)c2C1 (stereo not drawn) and report it.
3.97

Find the recorded pIC50 belonging to Cc1cc(C#N)cc(C)c1Oc1nc(Nc2ccc(C#N)cc2)nc2c1CN(C(=O)C(N)Cc1cnc[nH]1)CC2 (stereo not drawn) and report it.
7.49

Find the recorded pIC50 belonging to Cc1cc(C#N)cc(C)c1Oc1nc(Nc2ccc(C#N)cc2)nc2c1CN(C(=O)CN)CC2 and report it.
8.26

Find the recorded pIC50 belonging to Cc1cc(C#N)cc(C)c1Oc1nc(Nc2ccc(C#N)cc2)nc2c1CNCC2 and report it.
5.12

Find the recorded pIC50 belonging to Cc1cc(C#N)cc(C)c1Oc1nc(Nc2ccc(C#N)cc2)nc2c1CCN(S(C)(=O)=O)CC2 and report it.
5.21

Find the recorded pIC50 belonging to Cc1cc(C#N)cc(C)c1Oc1nc(Nc2ccc(C#N)cc2)nc2c1CN(C(=O)[C@@H](N)Cc1ccccc1)CC2 and report it.
3.27
